Molecular target: JAK2 (JH1domain-catalytic, Y1007F,Y1008F) kinase (Homo sapiens, UniProt O60674, Y1007F/Y1008F)
Construct: JAK2 (JH1domain-catalytic, Y1007F,Y1008F) kinase was expressed as N-terminal fusion
Sequence (O60674 849-1124 Y1007F/Y1008F limits assumed): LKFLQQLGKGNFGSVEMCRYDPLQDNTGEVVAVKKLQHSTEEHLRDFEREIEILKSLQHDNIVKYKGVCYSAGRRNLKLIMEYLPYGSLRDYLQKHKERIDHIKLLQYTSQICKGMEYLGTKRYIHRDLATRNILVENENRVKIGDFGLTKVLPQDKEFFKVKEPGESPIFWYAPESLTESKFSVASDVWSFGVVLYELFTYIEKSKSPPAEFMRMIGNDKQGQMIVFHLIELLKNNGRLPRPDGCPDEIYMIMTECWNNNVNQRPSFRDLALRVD
Experiment: JAK2 JH1 Domain Binding Assay
Settings: qPCR readout
Consider the following compounds and their measured Kd readings.

Example results:
CNc1cn2ncc(Oc3cnc4nc(Nc5ccc(CN6CC[C@@H](OC)C6)c(C(F)(F)F)c5)n(C)c4c3Cl)c2cn1 ... 50 to 1000 nM
Cn1c(Nc2cc(C(F)(F)F)cn([C@H]3C[C@@H](O)C3)c2=O)nc2ncc(Oc3cnn4cc(F)ccc34)c(Cl)c21 ... < 10 nM
COc1c(Oc2cnn3ccncc23)cnc2nc(Nc3cc(C(F)(F)F)cn([C@@H]4CC[C@H]4O)c3=O)n(C)c12 (single isomer, unassigned) ... 10 to 50 nM
COc1c(Oc2cnn3ccncc23)cnc2nc(Nc3cc(C4CC4)cn([C@H]4CCCOC4)c3=O)n(C)c12 (single isomer, unassigned) ... < 10 nM
Cn1c(Nc2cc(C(C)(C)C)n([C@H]3COC[C@@H]3O)n2)nc2ncc(Oc3cnn4ccnc4c3)c(Cl)c21 (single isomer, unassigned) ... 10 to 50 nM

// `Cn1cc(C(F)(F)F)cc(Nc2nc3ncc(Oc4cnn5ccncc45)c(Cl)c3n2C)c1=O` : Kd value = < 10 nM

---

Consider the following compounds and their measured pKd readings.
Molecular target: JAK2 (JH1domain-catalytic, Y1007F,Y1008F) kinase (Homo sapiens, UniProt O60674, Y1007F/Y1008F)
Construct: JAK2 (JH1domain-catalytic, Y1007F,Y1008F) kinase was expressed as N-terminal fusion
Assay: JAK2 JH1 Domain Binding Assay
Details: qPCR readout
pKd: −log10 of the molar value.

Example results:
Cn1cc(C(F)(F)F)cc(Nc2nc3ncc(Oc4cnn5ccccc45)c(C#N)c3n2C)c1=O [Example I-212] ... > 8.00
CNc1cn2ncc(Oc3cnc4nc(Nc5cc(C(F)(F)F)cn(C)c5=O)n(C)c4c3C#N)c2c(C)n1 [Example I-396] ... 7.30 to 8.00
COc1c(Oc2cnn3ccccc23)cnc2nc(Nc3cc(C4CC4)cn([C@@H]4CCCOC4)c3=O)n(C)c12 (single isomer, unassigned) [Example I-101-b] ... > 8.00

Now turn to the next compound.
// CN(C)c1cc(Nc2nc3ncc(Oc4cnn5ccncc45)c(Cl)c3n2C)cc(C(F)(F)F)n1 [Example I-274] : pKd value = 7.30 to 8.00

---

Consider the following compounds and their measured Kd readings.
Target: JAK2 (JH1domain-catalytic, Y1007F,Y1008F) kinase (Homo sapiens, UniProt O60674, Y1007F/Y1008F)
Construct: JAK2 (JH1domain-catalytic, Y1007F,Y1008F) kinase was expressed as N-terminal fusion
Experiment: JAK2 JH1 Domain Binding Assay
Details: qPCR readout

Cn1c(Nc2cc(C(C)(C)C)n([C@H]3CCOC3)n2)nc2ncc(Oc3cnc4[nH]c(C5CC5)cc4c3)cc21 ... 10 to 50 nM
COCc1c[nH]c2ncc(Oc3cnc4nc(Nc5cc(C(C)(C)C)n([C@@H]6CCOC6)n5)n(C)c4c3)cc12 ... < 10 nM
Cn1c(Nc2cc(C(C)(C)C)n([C@H]3CCN(CCF)C3)n2)nc2ncc(Oc3cnn4ccnc4c3)c(Cl)c21 ... 10 to 50 nM
C[C@H](CO)Cn1cc(C2CC2)cc(Nc2nc3ncc(Oc4cnn5ccncc45)c(Cl)c3n2C)c1=O (single isomer, unassigned) ... < 10 nM
CNc1nccn2ncc(Oc3cnc4nc(Nc5cc(CN6CC(OC)C6)cc(C(F)(F)F)c5)n(C)c4c3Cl)c12 ... 10 to 50 nM

// `Cn1c(Nc2cc3n(n2)CCCC3(F)F)nc2ncc(Oc3cnn4ccccc34)c(C#N)c21` : Kd value = < 10 nM

// `Cn1cc(C(F)(F)C(F)(F)F)cc(Nc2nc3ncc(Oc4cnn5ccncc45)c(Cl)c3n2C)c1=O` : Kd value = < 10 nM

// `Cn1c(Nc2cc(C(F)(F)F)cn(CCO)c2=O)nc2ncc(Oc3cnn4ccccc34)c(C#N)c21` : Kd value = < 10 nM

// `Cn1c(Nc2cc(CN3CCC(F)(F)C3)cc(C(F)(F)F)c2)nc2ncc(Oc3cnn4ccncc34)c(Cl)c21` : Kd value = < 10 nM

// `Cn1c(Nc2cc(C(C)(C)C)n([C@@H]3CCOC3)n2)nc2ncc(Oc3cnn4ccnc4c3)c(Cl)c21` : Kd value = 10 to 50 nM

---

Molecular target: JAK2 (JH1domain-catalytic, Y1007F,Y1008F) kinase (Homo sapiens, UniProt O60674, Y1007F/Y1008F)
Construct: JAK2 (JH1domain-catalytic, Y1007F,Y1008F) kinase was expressed as N-terminal fusion
Test: JAK2 JH1 Domain Binding Assay
Conditions: qPCR readout
pKd: −log10 of the molar value.
READOUT_TYPE: pKd

Example results:
Cn1cc(C(F)(F)F)cc(Nc2nc3ncc(Oc4cnn5ccnc(N[C@H]6CCOC6)c45)c(Cl)c3n2C)c1=O ... > 8.00
Cn1c(Nc2cc(C(C)(C)C)n(C3CC4(COC4)C3)n2)nc2ncc(Oc3cnn4ccncc34)c(C(F)F)c21 ... > 8.00
Cn1c(Nc2cc(C(C)(C)C)n([C@H]3COC[C@@H]3O)n2)nc2ncc(Oc3cnc4cnc(C5CC5)n4c3)c(Cl)c21 (single isomer, unassigned) ... 7.30 to 8.00

// `Cn1c(Nc2cc(C(C)(C)C)n([C@H]3CCN(CCF)C3)n2)nc2ncc(Oc3cnn4ccncc34)c(C(F)F)c21` : pKd value = 7.30 to 8.00

// `CC(=O)N1CC2(CC(n3nc(Nc4nc5ncc(Oc6cnn7ccncc67)c(Cl)c5n4C)cc3C(F)(F)F)C2)C1` : pKd value = > 8.00

// `COc1n[nH]c2ncc(Oc3cnc4nc(Nc5cc6n(n5)CCCC6(F)F)n(C)c4c3C#N)cc12` : pKd value = > 8.00

// `Cn1c(Nc2cc(C(C)(C)C)n([C@H]3C[C@H](O)C3)n2)nc2ncc(Oc3cnn4ccncc34)c(C#N)c21` : pKd value = > 8.00

// `Cn1c(Nc2cc(C(C)(C)C)n([C@H]3CCO[C@@H]3CO)n2)nc2ncc(Oc3cnn4ccncc34)c(Cl)c21` : pKd value = > 8.00

// `Cn1cc(C(F)(F)F)cc(Nc2nc3ncc(Oc4cnc5[nH]nc(C6CC6)c5c4)c(C#N)c3n2C)c1=O` : pKd value = > 8.00

// `Cn1cc(C(F)(F)F)cc(Nc2nc3ncc(Oc4cnc5[nH]c(C6CC6)cc5c4)c(Cl)c3n2C)c1=O` : pKd value = 7.30 to 8.00

---

Biological target: JAK2 (JH1domain-catalytic, Y1007F,Y1008F) kinase (Homo sapiens, UniProt O60674, Y1007F/Y1008F)
Construct: JAK2 (JH1domain-catalytic, Y1007F,Y1008F) kinase was expressed as N-terminal fusion
Experiment: JAK2 JH1 Domain Binding Assay
Settings: qPCR readout
pKd: −log10 of the molar value.
READOUT_TYPE: pKd

Example results:
CN1CC(Oc2cc(Nc3nc4ncc(Oc5cnn6ccncc56)c(Cl)c4n3C)cc(C(F)(F)F)c2)C1 [Example I-218] ... > 8.00
CNc1nccn2ncc(Oc3cnc4nc(Nc5cc(C(F)(F)F)n([C@H]6COC[C@@H]6O)n5)n(C)c4c3Cl)c12 (single isomer, unassigned) [Example I-279-a] ... > 8.00

// Cn1cc(C2CC2)cc(Nc2nc3ncc(Oc4cnn5ccncc45)c(Cl)c3n2C)c1=O [Example I-57] : pKd value = > 8.00

// Cn1c(Nc2cc(C(C)(C)C)n([C@H]3COC[C@@H]3O)n2)nc2ncc(Oc3cnn4ccncc34)c(C#N)c21 (single isomer, unassigned) [Example I-150-a] : pKd value = 7.30 to 8.00

// Cn1c(Nc2cc(C(C)(C)C)n([C@@H]3CCOC3)n2)nc2ncc(Oc3cnn4ccncc34)c(Cl)c21 [Example I-21] : pKd value = > 8.00

// Cn1c(Nc2cc(CN3CCC3)cc(C(F)(F)F)c2)nc2ncc(Oc3cnn4ccncc34)c(Cl)c21 [Example I-256] : pKd value = > 8.00

// Cn1c(Nc2cc(C(C)(C)C)n(C3COC3)n2)nc2ncc(Oc3cnn4ccncc34)c(C#N)c21 [Example I-168] : pKd value = 7.30 to 8.00

// Cn1c(Nc2cc(C3CC3)cn([C@H]3CC[C@@H]3O)c2=O)nc2ncc(Oc3cnn4ccncc34)c(Cl)c21 (single isomer, unassigned) [Example I-95-a] : pKd value = > 8.00

// COCCOc1nccn2ncc(Oc3cnc4nc(Nc5cc(C6CC6)cn(C)c5=O)n(C)c4c3Cl)c12 [Example I-135] : pKd value = > 8.00
